settings: Crystal 1; DTA
PARAMETER_MEASURED: Triple point temperature (K)

compound="CCCCCCc1ccc(C(=O)O)cc1 [4-hexylbenzoic acid]" quantitative_readout=370.64
compound="CCCCCc1ccc(C(=O)O)cc1 [4-pentylbenzoic acid]" quantitative_readout=362.45
compound="CCCCCCCCc1ccc(C(=O)O)cc1 [4-octylbenzoic acid]" quantitative_readout=373.25
compound="CCCCc1ccc(C(=O)O)cc1 [4-butylbenzoic acid]" quantitative_readout=374.6
compound="CCCc1ccc(C(=O)O)cc1 [4-propylbenzoic acid]" quantitative_readout=415.41
compound="CCCCCCCc1ccc(C(=O)O)cc1 [4-heptylbenzoic acid]" quantitative_readout=374.52

---

Reported Triple point temperature values for the following compounds.
conditions: Crystal 2; DTA
PARAMETER_MEASURED: Triple point temperature (K)

given_smiles=CCCc1ccc(C(=O)O)cc1 parameter_measured="Triple point temperature" quantitative_readout=298.48
given_smiles=CCCCCCCc1ccc(C(=O)O)cc1 parameter_measured="Triple point temperature" quantitative_readout=320.17
given_smiles=CCCCCCCCc1ccc(C(=O)O)cc1 parameter_measured="Triple point temperature" quantitative_readout=366.56
given_smiles=CCCCc1ccc(C(=O)O)cc1 parameter_measured="Triple point temperature" quantitative_readout=309.64

---

Molar enthalpy of transition or fusion values for the molecules below.
assay: Molar enthalpy of transition or fusion; details: Crystal 2; DSC
PARAMETER_MEASURED: Molar enthalpy of transition or fusion (kcal/mol)

given_smiles=CCCCCCCCc1ccc(C(=O)O)cc1 parameter_measured="Molar enthalpy of transition or fusion" endpoint_unit=kcal/mol quantitative_readout=0.112
given_smiles=CCCc1ccc(C(=O)O)cc1 parameter_measured="Molar enthalpy of transition or fusion" endpoint_unit=kcal/mol quantitative_readout=0.81
given_smiles=CCCCc1ccc(C(=O)O)cc1 parameter_measured="Molar enthalpy of transition or fusion" endpoint_unit=kcal/mol quantitative_readout=1.12
given_smiles=CCCCCCCc1ccc(C(=O)O)cc1 parameter_measured="Molar enthalpy of transition or fusion" endpoint_unit=kcal/mol quantitative_readout=1.77

---

experiment: Molar enthalpy of transition or fusion; details: Crystal 1; DSC
# Molar enthalpy of transition or fusion per record follows
PARAMETER_MEASURED: Molar enthalpy of transition or fusion (kcal/mol)

given_smiles=CCCc1ccc(C(=O)O)cc1 endpoint_unit=kcal/mol quantitative_readout=4.7
given_smiles=CCCCCCCc1ccc(C(=O)O)cc1 endpoint_unit=kcal/mol quantitative_readout=3.42
given_smiles=CCCCCCc1ccc(C(=O)O)cc1 endpoint_unit=kcal/mol quantitative_readout=0.227
given_smiles=CCCCc1ccc(C(=O)O)cc1 endpoint_unit=kcal/mol quantitative_readout=2.77
given_smiles=CCCCCCCCc1ccc(C(=O)O)cc1 endpoint_unit=kcal/mol quantitative_readout=3.42
given_smiles=CCCCCc1ccc(C(=O)O)cc1 endpoint_unit=kcal/mol quantitative_readout=2.72
